# System: CEM cells HIV-1 protection, formazan growth assay
# assay-name: NCI AIDS Antiviral Assay
pEC50: −log10 of the molar value.
So I've got a bunch of compounds here, and I need their pEC50 values.

In: # return recorded pEC50 for input COc1cccc(C2C(C(=O)Nc3cc(=O)n(C)c(=O)n3C)=C(C)NC(C)=C2C(=O)Nc2cc(=O)n(C)c(=O)n2C)c1O
Out: < 3.66

In: # return recorded pEC50 for input O=C1C=C2CC3c4[nH]c5ccccc5c4CCN3CC2CC1 (stereo not given)
Out: < 4.07

In: # return recorded pEC50 for input O=C(c1cccc(C(=O)N(c2ccccc2)c2ccccc2)n1)N(c1ccccc1)c1ccccc1
Out: < 4.95

In: # return recorded pEC50 for input Cc1n[n+](CC(=O)c2ccccc2)c2sc(N)nn12
Out: < 3.70

In: # return recorded pEC50 for input CCC/C(Cl)=N/OC(=O)Nc1cc(C(F)(F)F)ccc1OC
Out: < 3.70

* * *

# System: CEM cells HIV-1 protection, formazan growth assay
# assay-name: NCI AIDS Antiviral Assay;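 active = compounds giving half or more protection of infected cells from virus-caused growth loss, again on retest; inactive = the rest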
Classes to choose from: YES (active), NO (inactive)

In: What call does the record list for C/C=C/C=C\C=C/C(O)C(C)C(CCC(C)C1OC(=O)C=CC1C)OP(=O)(O)O (centres undefined) ?
Out: NO

In: What call does the record list for C[C@@]1(O)C2CC3CC1(c1ccccc1)CC(/C3=N/O)/C2=N\O (some centres undefined) ?
Out: NO

In: What call does the record list for C/C(=N\NC(=S)NNC(=S)N(C)c1ccccc1)c1ccccn1 ?
Out: NO

In: What call does the record list for O=S(=O)([O-])[O-].O=c1[nH]cnc2[nH]ncc12.O=c1[nH]cnc2[nH]ncc12.[Zn+2] ?
Out: NO

In: What call does the record list for CC(=O)ONc1nn2cc(-c3ccccc3)nc2s1 ?
Out: NO

In: What call does the record list for COc1ccc(/C=C(\C)C=C(C#N)C#N)cc1 ?
Out: NO

In: What call does the record list for CN1CCN(CCSc2nnc(-c3ccc4ccccc4c3)c3ccccc23)CC1 ?
Out: NO

In: What call does the record list for OC(c1cc2ccccc2o1)c1cc2ccccc2s1 (centres undefined) ?
Out: NO

In: What call does the record list for CCC(=O)O[C@@H]1C2C(OC(C)=O)C34COC(C)([C@@H]3C3C(C[C@]3(C)OC(C)=O)[C@@H](OC(=O)c3ccccc3)C4=O)[C@H](OC(C)=O)[C@@]2(OC(C)=O)C[C@@H]1C (some centres undefined) ?
Out: NO

In: What call does the record list for O=C1CCCC2=C1C(c1ccncc1)Nc1ccccc1N2 (centres undefined) ?
Out: NO

In: What call does the record list for COC(=O)[C@](NC(=O)OCc1ccccc1)([C@@H](C)S(=O)c1ccc(C)cc1)C(F)(F)F (some centres undefined) ?
Out: NO

In: What call does the record list for CCn1ccc(=O)nc1 ?
Out: NO

In: What call does the record list for COC(=O)C1C=CN(N(C)C)C2=C1C(=O)c1c(O)cccc1C2=O (centres undefined) ?
Out: NO

In: What call does the record list for CCOC(=O)CN1C(=O)S/C(=C2\C(=O)N(C)c3ccc(Br)cc32)C1=O ?
Out: NO

In: What call does the record list for COc1cc(/C=C/C(=O)c2ccccc2)cc(OC)c1OC ?
Out: NO

In: What call does the record list for Cn1cnc(CCc2ccccc2)n1 ?
Out: NO

In: What call does the record list for O=C1NC(O)c2cc(O)ccc2O1 (centres undefined) ?
Out: NO

In: What call does the record list for OCCCCCCCCCCCOc1ccc(C2OCC3(CC=CCC3)CO2)cc1 (centres undefined) ?
Out: NO

In: What call does the record list for Nc1c(C(=O)O)nnc2cc(Cl)ccc12 ?
Out: NO

In: What call does the record list for Cc1cc(C(=O)N2CCN(Cc3ccccc3)CC2)c(C)o1 ?
Out: NO

In: What call does the record list for CC(C)OP(=O)(OC(C)C)c1ccc2c(c1)OCCOCCOCCOCCO2 ?
Out: NO

In: What call does the record list for COc1ccc(C2Oc3c(cc(O)c(OC)c3C)[C@@H]2C)cc1OC (some centres undefined) ?
Out: NO

In: What call does the record list for CC(=O)Nc1cccc(N2C(=O)/C(=C\c3cccc(Oc4ccccc4)c3)S(=O)(=O)C2c2ccccc2)c1 (centres undefined) ?
Out: NO

In: What call does the record list for O=C(CC(c1ccccc1)c1c(O)c2ccccc2oc1=O)c1ccccc1 (centres undefined) ?
Out: NO

In: What call does the record list for COc1ccc(/C=C/c2cc(OC)c(OC)c(OC)c2)cc1O[Si](C)(C)C(C)(C)C ?
Out: NO

In: What call does the record list for O=C1N/C(=C\[N+](=O)[O-])c2ccccc21 ?
Out: NO

In: What call does the record list for Cc1cc(NC(=S)NNC(=O)Cn2nnc(-c3cccc(Cl)c3Cl)n2)ccc1Br ?
Out: NO

In: What call does the record list for Cc1nc2c(sc3nc4c(cc32)CCC4)c(=O)o1 ?
Out: NO

In: What call does the record list for CC1(C)N=C(c2ccccn2)C(c2ccccn2)=NC1(C)C ?
Out: NO

In: What call does the record list for CC[C@H]1CN2CCc3c([nH]c4ccccc34)C2C[C@@H]1CCO (some centres undefined) ?
Out: NO

In: What call does the record list for CC(C)N(C(=O)C12C3C4C1C1C2C3C41C(=O)N(C(C)C)C(C)C)C(C)C (centres undefined) ?
Out: NO

In: What call does the record list for CN1C(=O)C=C(C=Nc2ccc(-c3ccccc3)cc2)C2CCCCC21 (centres undefined) ?
Out: NO

In: What call does the record list for CC(=O)OC[C@@H](OC(C)=O)[C@H](OC(C)=O)[C@@H]1OC(C)(C)O[C@@H]1C1SCCCS1 ?
Out: NO

In: What call does the record list for O=[N+]([O-])c1ccc(-c2ccc(C3=Nn4c(CNc5ccccc5Cl)nnc4SC3)o2)cc1 ?
Out: NO

In: What call does the record list for O=C(O)CCN(CCC(=O)O)CCN(CCC(=O)O)CCC(=O)O ?
Out: NO

In: What call does the record list for CCCCCc1nnc2n1N=C(c1ccc(Cl)cc1)CS2 ?
Out: NO

In: What call does the record list for CC(=O)OC1Sc2ccccc2C(=O)N2CCCC12 (centres undefined) ?
Out: NO

In: What call does the record list for COC(=O)c1ccc2cc(O)c(O)cc2c1 ?
Out: NO

In: What call does the record list for Nc1ncnc2c1nc1n2C2OC(CO)C(O)C2O1 (centres undefined) ?
Out: NO

In: What call does the record list for CCCc1cc(=O)oc2c3c(c4c(c12)OC(C)(C)C=C4)O[C@H](C)[C@@H](C)[C@@H]3OC(=O)CCl ?
Out: YES

In: What call does the record list for CC(=O)Nc1ccccc1/C=C/c1ccccn1 ?
Out: NO

In: What call does the record list for O=C(NC1CCCCC1)NC12CC3CC(CC(F)(C3)C1)C2 ?
Out: NO

In: What call does the record list for C1CC2=C(C1)[Se]C(=C1Sc3nsnc3S1)[Se]2 ?
Out: NO

In: What call does the record list for CCC1CC(C)=CCN1S(=O)(=O)c1ccc(C)cc1 (centres undefined) ?
Out: NO

* * *

# Test system: CEM cells HIV-1 protection, formazan growth assay
# assay-name: NCI AIDS Antiviral Assay;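 active means compounds giving half or more protection of infected cells from virus-caused growth loss, again on retest; inactive means the rest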
Classes to choose from: active, inactive

In: What call does the record list for NC(=S)N/N=C(/CCN1CCCC1)CC(C1=C(O)C2=CCCCC2OC1=O)c1ccccc1 (configuration not stated) ?
Out: inactive

In: What call does the record list for NC(=S)N/N=C(\CCC(=O)Nc1ccccc1[N+](=O)[O-])CC(=O)c1ccco1 ?
Out: inactive

In: What call does the record list for C(=Nc1cnc2ccccc2c1)c1ccc2ccccc2n1 ?
Out: inactive

In: What call does the record list for NS(=O)(=O)c1ccc(NC2=CC(=O)C(=O)c3ccccc32)cc1 ?
Out: inactive

In: What call does the record list for COC(=O)Nc1nc2ccc(C(=O)C3CC3)cc2[nH]1 ?
Out: inactive

In: What call does the record list for COc1cccc2c(NCCCN(C)C)c3c([N+](=O)[O-])ccc(OC)c3nc12 ?
Out: inactive

In: What call does the record list for CC1(C)O[C@@H]2C[C@H]3[C@@H]4C[C@H](F)C5=CC(=O)C=C[C@]5(C)[C@@]4(F)[C@@H](O)C[C@]3(C)[C@]2(C(=O)CO)O1 ?
Out: inactive

In: What call does the record list for O=C1NC2(CCNCC2)Oc2ccccc21 ?
Out: inactive

In: What call does the record list for CC(C)(C)/C(O)=C\c1nc2cc(C(F)(F)F)ccc2[nH]c1=O ?
Out: inactive

In: What call does the record list for C=C1CC(Cn2ccc(=O)[nH]c2=O)(c2ccc(Cl)cc2)OC1=O (configuration not stated) ?
Out: inactive

In: What call does the record list for CC1OC(OC2C(O)COC(OC3C(C)OC(OC4C(OC(=O)[C@]56CCC(C)(C)C[C@@H]5C5=CCC7[C@@]8(C)C[C@H](O)[C@H](OC9OC(CO)C(O)C(O)C9O)[C@@](C)(CO)[C@@H]8CC[C@@]7(C)[C@]5(C)CC6)OCC(O)C4O)C(O)C3OC3OCC(O)(CO)C3O)C2O)C(O)C(O)C1O (some centres not stated) ?
Out: active

In: What call does the record list for c1ccc(C2=C(c3ccccc3)Sc3nnc(CCCCCCCCc4nnc5n4NC(c4ccccc4)=C(c4ccccc4)S5)n3N2)cc1 ?
Out: inactive

In: What call does the record list for COc1ccc(NC2=CC(C)(C(=O)O)OC2=O)cc1 (configuration not stated) ?
Out: inactive

In: What call does the record list for Nc1nc(N)c(Br)c(Nc2ccc(Cl)c(Cl)c2)n1 ?
Out: active

In: What call does the record list for Cc1ccc(/C=N/Nc2cc(C)c3ccccc3n2)s1 ?
Out: inactive

In: What call does the record list for Brc1ccccc1/C=C\C1(c2ccccc2)OCCO1 ?
Out: inactive

In: What call does the record list for CCCCNC(=S)/N=C/c1c(O)c2ccccc2[nH]c1=O ?
Out: inactive

In: What call does the record list for COC(=O)C(C(=O)C(N)=O)c1csc(-n2nc(-c3ccccc3)cc2-c2ccccc2)n1 (configuration not stated) ?
Out: inactive

In: What call does the record list for O=C(O)CC(NC(=O)Nc1ccc([N+](=O)[O-])cc1)C(=O)Nc1ccc([N+](=O)[O-])cc1 (configuration not stated) ?
Out: inactive

In: What call does the record list for CC1(C)C2CCC1(C)C(N=C(N)CSS(=O)(=O)O)C2 (configuration not stated) ?
Out: inactive

In: What call does the record list for O=C1[C@@H](O)[C@@H]2CCCC[C@@]23CCCN13 ?
Out: inactive

In: What call does the record list for O=c1[nH]cnc(O)c1N=Nc1ccc(/C=C/c2ccc(N=Nc3c(O)nc[nH]c3=O)cc2S(=O)(=O)O)c(S(=O)(=O)O)c1 ?
Out: inactive

In: What call does the record list for Cc1cc2c(cc1C)C1=C(CCC2)C(=O)C(=O)O1 ?
Out: inactive

In: What call does the record list for c1ccc(-c2nc3ccccc3nc2-c2ccccn2)nc1 ?
Out: inactive

In: What call does the record list for O=c1n(-c2ccccc2)c(=O)n2c(=O)n(-c3ccccc3)c(=O)n12 ?
Out: inactive

In: What call does the record list for COC(=O)C1CCC(=O)N1CN(C(C)=O)c1ccccc1 (configuration not stated) ?
Out: inactive

In: What call does the record list for CSc1cnc2ccccc2c1Sc1cn(C)c2ccccc2c1=O ?
Out: inactive

In: What call does the record list for COc1ccc(CC2NCCc3cc(OC)c(OC)cc32)cc1Br (configuration not stated) ?
Out: inactive

In: What call does the record list for O=C1CC(=O)NC(=NNS(=O)(=O)c2ccc(Cl)cc2)N1 ?
Out: inactive

In: What call does the record list for N#C[C@H]1Nc2ccccc2[C@@H](O)C1O (some centres not stated) ?
Out: inactive

In: What call does the record list for CCN(CC)CCOc1ccc2c(c1O)C(=O)c1ccccc1C2=O ?
Out: inactive

In: What call does the record list for N=C(N)c1ccc(N=Nc2ccc(N)cc2N)cc1 ?
Out: inactive

In: What call does the record list for CN=c1sc2nc(C#N)c(C#N)nc2n1C ?
Out: inactive

In: What call does the record list for CN1C/C(=C\c2cccs2)C(=O)/C(=C/c2cccs2)C1 ?
Out: inactive

In: What call does the record list for CC(C)(C)[Si](OC1CC(n2cnc3c(N)ncnc32)OC1CO)(c1ccccc1)c1ccccc1 (configuration not stated) ?
Out: inactive

In: What call does the record list for COC[C@H](C)N=CN1CCc2ccccc2C1 ?
Out: inactive

In: What call does the record list for COc1ccc(CCCN2c3ccccc3Sc3ccccc32)cc1 ?
Out: inactive

In: What call does the record list for COC1=CC(=O)O[C@]2(C)OCC(C)C(O)=C12 (some centres not stated) ?
Out: inactive

In: What call does the record list for O=C(Nc1ccc(C2=NCCN2)cc1)C1CCC(C(=O)Nc2ccc(C3=NCCN3)cc2)CC1 (configuration not stated) ?
Out: inactive

In: What call does the record list for COC(=O)c1cc2c(c3c1CC(Cc1ccccc1)C3=O)CCC2 (configuration not stated) ?
Out: inactive

In: What call does the record list for CC(=O)C(=Cc1cccc(F)c1)C(C)=O ?
Out: inactive

In: What call does the record list for O=S(=O)(O)SCNCNCCSCc1ccccc1 ?
Out: inactive
